Test system: K4 kissing-loop RNA reporter;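 note: bound reporter read as fluorescence of individual clusters on recovered sequencing chips by microscopy, with normalized cluster intensities fitted with a binding model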
experimentNotes: apparent KD of K4 kissing-loop reporter; higher = weaker reporter binding
testConditions: Eterna round: R107; input ligand: theophylline 20 uM
assayReadout: apparent KD of K4 kissing-loop reporter (nM)
State just the number; it will be interpreted in nM.

Query :: Identify the measured apparent KD of K4 kissing-loop reporter of CGCCGCAAGGCGAGCGCUCCCACUCCGGAAGGAGCGCCCGAAAGGGCAGGUAGGUCGCCGGAGUGAUGUUCCGGUGGAGGGCUCG [#2 Exclusion - Arginine A Attempt #27 (Inspired by Omei)] for K4 kissing-loop RNA reporter.
Result :: 360

Query :: Then this sequence: AAUACAGUACAACCGAGUGGAACACAAAUACGAGGACCGGUACGGCCGCCACUCGUGCAGAAUUUCAGUGAUGUUGAAAUACUGC [Exclusion Tryptophan A GF 6]
Result :: 162

Query :: Then this sequence: AGGCACGAGCAAGGAUAUCGAGUAGAGUGAUGUUCUGCCUGGGUUGGCGCGUAAGGGCCUUCCCAGCGAGAAGGUGCUCGUGCCU [#2 Same State - FMN A Attempt #12 (HarryS)]
Result :: 677

Query :: Then this sequence: ACGCUAGCUACCGAAAGGUAGCUAGCGAGUGAGGAUAUGUGGAAACACAGAAGGCACAGCGCAGUGAUGUUGUGCGGCGAAAGCC [whbob_SS_FMNA__2th166]
Result :: 231

Query :: Then this sequence: CUAUGGAAACAUAGGAAUCGGGAAACCGAUACCAGUAUGGAAACAUACCCUUGGCAGCGGAAUGAUUCAACGGAGUGAUGUUCCG [Theophylline A K4 20]
Result :: 293

Query :: Then this sequence: CCUAUCUCAUACGAUACCAGUCUAUUGUUACGAGUGAUGUUCGAAUAUUUGCCAUUCAAUGACCCUUGGCAGCGUAUGGGAUAGG [Ex Theophylline B K4 10]
Result :: 548

Query :: Then this sequence: CCCUCACGAGUGAUGUUCGUAGGGUACAGUCAGGAUAUCAUGCGGUUGAGAAGGGACAGAGAGGGCGGCGGCGGGUUGCUCAUCG [Rabele]
Result :: 166

Query :: Then this sequence: GGGUCAGUCUGAAGGAGCGGCCAGACAGAGCAGUGAUGUUGCUCCUAAUUUAAAAGUGUCGGCCAGGUAGGUCGCAGAUUGGCUC [Dienralais]
Result :: 152

Query :: Then this sequence: UUGUUUUACUGAAGGAGCGGCAAUUGAUACGUAGAUAUAGUGAUGUUAUAUAAGAUAGAGAGCCAGGUAGGUCGCAGAUUUGUUU [ExArgB.U]
Result :: 183

Query :: Then this sequence: GUUACGCAUGGAAGGAGCGCUCUCAUGCUUAAUAACACAGUGAUGUUGUGAAUUUGCAUAAAGCAGGUAGGUCGCCAUGUGUAAC [Ex Arginine B K4 8]
Result :: 291

Query :: Then this sequence: ACGUAGCAGGCGGCCGCCACUCCGCAUAUGGAUCUCGAGUGAUGUUUGAGGGUGCCCAUCACAGCGAGGACCGGGCCAAUUAAGC [theeternabot_sameState_KL_Trp_B_10]
Result :: 179
